Attribution: ChEMBL document CHEMBL1154448

ASSAY PROTOCOL: Acute toxicity in ip dosed albino mouse assessed as mortality after 24 hrs
Type: organism-based
CONDITION: in vivo, read-out: ALD50
MEASUREMENT LABEL: LD50 at 24 h

>>> test_value("CCc1[nH]c2ccccc2c1C(=N/c1nc(-c2c(-c3ccc(Cl)cc3)[nH]c3ccccc23)co1)/N=N/c1ccc(Cl)cc1")
"> 800 mg/kg"
>>> test_value("Clc1ccc(/N=N/C(=N\\c2nc(-c3c(-c4ccc(Cl)cc4)[nH]c4ccccc34)co2)c2c(-c3ccccc3)[nH]c3ccccc23)cc1")
"> 800 mg/kg"
>>> test_value("Clc1ccc(-c2[nH]c3ccccc3c2-c2csc(/N=C/c3c(-c4ccccc4)[nH]c4ccccc34)n2)cc1")
"800 mg/kg"
>>> test_value("Cc1[nH]c2ccccc2c1/C=N/c1nc(-c2c(-c3ccc(Cl)cc3)[nH]c3ccccc23)cs1")
"> 1000 mg/kg"
>>> test_value("Clc1ccc(-c2[nH]c3ccccc3c2-c2coc(/N=C/c3c(-c4ccccc4)[nH]c4ccccc34)n2)cc1")
"> 800 mg/kg"
>>> test_value("COc1ccc(/N=N/C(=N\\c2nc(-c3c(-c4ccc(Cl)cc4)[nH]c4ccccc34)co2)c2c(-c3ccccc3)[nH]c3ccccc23)cc1")
"> 800 mg/kg"
>>> test_value("CCc1[nH]c2ccccc2c1C(=N/c1nc(-c2c(-c3ccc(Cl)cc3)[nH]c3ccccc23)cs1)/N=N/c1ccc(OC)cc1")
"> 800 mg/kg"
>>> test_value("CCc1[nH]c2ccccc2c1/C=N/c1nc(-c2c(-c3ccc(Cl)cc3)[nH]c3ccccc23)co1")
"> 800 mg/kg"
>>> test_value("COc1ccc(/N=N/C(=N\\c2nc(-c3c(-c4ccc(Cl)cc4)[nH]c4ccccc34)cs2)c2c(C)[nH]c3ccccc23)cc1")
"> 800 mg/kg"
